Reported pKi for target or system Neutrophil collagenase (Homo sapiens), by entry.
pKi: −log10 of the molar value.
quantity name: pKi

Sample records with pKi:
> print(dat)
                                   compound  readout.number
1  CNC(=O)[C@@H](Cc1cccc2ccccc12)NC(=O)[C@@H](CC(=O)NO)CC(C)C            9.19
2  CNC(=O)[C@@H](Cc1csc2ccccc12)NC(=O)[C@@H](CC(=O)NO)CC(C)C            9.35
3  CC(C)C[C@H](CC(=O)NO)C(=O)N[C@H](Cc1ccc(-c2ccccc2)cc1)C(=O)NCCCN1CCOCC1            8.17
4  CC(C)C[C@H](CC(=O)NO)C(=O)N[C@@H](Cc1c[nH]c2ccccc12)C(=O)N[C@@H](C)c1ccccc1            9.12
5  CNC(=O)[C@@H](CC(C)C)NC(=O)C(CC(C)C)C(O)C(=O)NO (single isomer, unassigned)            9.28
6  CC(C)C[C@H](CC(=O)NO)C(=O)N[C@H](Cc1ccc2ccccc2c1)C(=O)NCCCN1CCOCC1            8.35

P = CC(C)C[C@H](CC(=O)NO)C(=O)N[C@@H](Cc1c[nH]c2ccccc12)C(=O)N1CCCC1
Q = CC(C)C[C@H](CC(=O)NO)C(=O)N(C)[C@@H](Cc1c[nH]c2ccccc12)C(=O)NCCCN1CCOCC1
R = CC(C)C[C@H](CC(=O)NO)C(=O)N[C@@H](Cc1c[nH]c2ccccc12)C(=O)NCCCn1ccnc1
Hey, quick one: sort these by pKi, largest value first please. Answer by writing out the labels in the requested order.
R, P, Q

###

Reported Ki for target or system Matrix metalloproteinase-9 (Homo sapiens), by entry.
quantity name: Ki (nM)

Sample records with Ki:
> print(dat)
                                   compound                           measured.target  readout.number
1  CNC(=O)[C@H](Cc1cn(C)c2ccccc12)NC(=O)[C@@H](CC(=O)NO)CC(C)C  Matrix metalloproteinase-9 (Homo sapiens)             1.6
2  CC(C)C[C@H](CC(=O)NO)C(=O)N[C@@H](Cc1c[nH]c2ccccc12)C(=O)N1CCCCC1  Matrix metalloproteinase-9 (Homo sapiens)              13
3  CNC(=O)[C@H](Cc1c[nH]c2ccccc12)N(C)C(=O)[C@@H](CC(=O)NO)CC(C)C  Matrix metalloproteinase-9 (Homo sapiens)              42
4  CC(C)C[C@H](CC(=O)NO)C(=O)N[C@@H](Cc1c[nH]c2ccccc12)C(=O)NCCCn1ccnc1  Matrix metalloproteinase-9 (Homo sapiens)             1.1
5  CC(C)CC(CC(=O)NO)C(=O)N[C@@H](Cc1c[nH]c2ccccc12)C(=O)NC1CCc2ccccc21 (single isomer, unassigned)  Matrix metalloproteinase-9 (Homo sapiens)              30

P = CCCCCO[C@H](CC(=O)NO)C(=O)N[C@@H](Cc1c[nH]c2ccccc12)C(=O)NC
Q = CNC(=O)[C@@H](Cc1ccncc1)NC(=O)[C@@H](CC(=O)NO)CC(C)C
Recorded Ki values differ for P and Q ; which one is higher? Record your answer as the label of the chosen record.
P
(P: 26 nM, Q: 2.8 nM)

###

# measured target: Matrix metalloproteinase-9 (Homo sapiens, UniProt P14780)
# Sequence (P14780 whole entry): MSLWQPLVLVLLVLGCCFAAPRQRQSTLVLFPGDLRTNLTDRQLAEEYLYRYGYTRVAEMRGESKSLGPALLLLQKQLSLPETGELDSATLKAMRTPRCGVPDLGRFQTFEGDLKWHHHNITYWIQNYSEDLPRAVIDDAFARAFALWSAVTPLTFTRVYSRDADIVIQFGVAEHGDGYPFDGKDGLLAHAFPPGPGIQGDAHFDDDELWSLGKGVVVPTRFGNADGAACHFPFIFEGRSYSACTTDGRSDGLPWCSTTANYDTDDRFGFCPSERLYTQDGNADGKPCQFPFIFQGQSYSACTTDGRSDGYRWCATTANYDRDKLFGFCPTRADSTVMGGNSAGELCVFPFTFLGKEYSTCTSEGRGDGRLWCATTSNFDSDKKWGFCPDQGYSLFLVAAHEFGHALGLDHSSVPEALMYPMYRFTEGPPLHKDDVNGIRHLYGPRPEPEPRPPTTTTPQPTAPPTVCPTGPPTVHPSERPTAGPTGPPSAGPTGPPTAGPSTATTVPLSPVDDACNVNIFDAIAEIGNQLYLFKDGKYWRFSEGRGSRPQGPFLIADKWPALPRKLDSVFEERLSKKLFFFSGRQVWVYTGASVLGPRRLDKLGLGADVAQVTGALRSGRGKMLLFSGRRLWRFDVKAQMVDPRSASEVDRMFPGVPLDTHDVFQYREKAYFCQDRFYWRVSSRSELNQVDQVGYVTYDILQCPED
pKi: −log10 of the molar value.
quantity name: pKi

Sample records with pKi:
> print(dat)
                                   compound  quantity.name  readout.number
1  CC(C)C[C@H](CC(=O)NO)C(=O)N[C@@H](Cc1c[nH]c2ccccc12)C(=O)NCc1cccnc1            pKi            9.11
2  CNC(=O)[C@@H](CC(C)C)NC(=O)C(CC(C)C)C(O)C(=O)NO (single isomer, unassigned)            pKi            8.64

1 = CNC(=O)[C@@H](Cc1cccc2ccccc12)NC(=O)[C@@H](CC(=O)NO)CC(C)C
2 = CNC(=O)[C@H](Cc1c[nH]c2ccccc12)NC(=O)[C@@H](CC(=O)NOCC(=O)OC)CC(C)C
Recorded pKi values differ for 1 and 2 ; which one is higher? Record your answer as the label of the chosen record.
1

###

Reported Ki for target or system 72 kDa type IV collagenase (Homo sapiens), by entry.
quantity name: Ki (nM)

Sample records with Ki:
> print(dat)
                                   molecule  readout.number
1  CNC(=O)[C@@H](CC(C)C)NC(=O)C(CC(C)C)C(O)C(=O)NO (single isomer, unassigned)            0.47
2  CC(C)C[C@H](CC(=O)NO)C(=O)N[C@@H](Cc1c[nH]c2ccccc12)C(=O)N1CCOCC1             3.5
3  CC(C)C[C@H](CC(=O)NO)C(=O)N[C@@H](Cc1c[nH]c2ccccc12)C(=O)N1CCCCC1              19
4  CNC(=O)[C@H](Cc1c[nH]c2ccccc12)NC(=O)C(CC(C)C)C(O)C(=O)NO (single isomer, unassigned)            0.89
5  CC(C)C[C@H](CC(=O)NO)C(=O)N[C@H](Cc1ccc(-c2ccccc2)cc1)C(=O)N[C@@H](C)c1ccccc1              25
6  CC(C)C[C@H](CC(=O)NO)C(=O)N(C)[C@@H](Cc1c[nH]c2ccccc12)C(=O)NCCCN1CCOCC1              55

P = CNC(=O)[C@@H](Cc1ccncc1)NC(=O)[C@@H](CC(=O)NO)CC(C)C
Q = CC(C)C[C@H](CC(=O)NO)C(=O)N[C@@H](Cc1c[nH]c2ccccc12)C(=O)N1CCCC1
Recorded Ki values differ for P and Q ; which one is higher? Record your answer as the label of the chosen record.
Q
(Q: 20 nM, P: 0.96 nM)

###

Reported Ki for target or system Neutrophil collagenase (Homo sapiens), by entry.
quantity name: Ki (nM)

> print(dat)
                            chemical.smiles                        measured.target  quantity.name  unit  readout.number
1  CCCCCC[C@H](CC(=O)NO)C(=O)N[C@@H](Cc1c[nH]c2ccccc12)C(=O)NC  Neutrophil collagenase (Homo sapiens)             Ki    nM            0.24

a = CC(C)C[C@H](CC(=O)NO)C(=O)N[C@H](Cc1ccncc1)C(=O)NCCc1ccc(O)cc1
b = CC(C)C[C@H](CC(=O)NO)C(=O)N[C@H](Cc1ccc2ccccc2c1)C(=O)NCc1ccccc1
c = CC(C)C[C@H](CC(=O)NO)C(=O)N[C@@H](Cc1c[nH]c2ccccc12)C(=O)NCCc1ccccn1
d = CC(C)C[C@H](CC(=O)NO)C(=O)N[C@@H](Cc1c[nH]c2ccccc12)C(=O)NCc1ccc2c(c1)OCO2
Hey, quick one: sort these by Ki, largest value first please. Answer by writing out the labels in the requested order.
b, d, c, a
(b: 7.7 nM, d: 3.7 nM, c: 0.49 nM, a: 0.33 nM)

###

Reported pKi for target or system Neutrophil collagenase (Homo sapiens), by entry.
pKi: −log10 of the molar value.
quantity name: pKi

Sample records with pKi:
> print(dat)
                                   compound  readout.number
1  CC(C)C[C@H](CC(=O)NO)C(=O)N[C@@H](Cc1c[nH]c2ccccc12)C(=O)NCc1ccccc1            8.92
2  CNC(=O)[C@H](Cc1c[nH]c2ccccc12)NC(=O)[C@@H](CC(=O)NOCC(=O)OC)CC(C)C            6.34
3  CC(C)CC(CC(=O)NO)C(=O)N[C@@H](Cc1c[nH]c2ccccc12)C(=O)NC1CCc2ccccc21 (single isomer, unassigned)            7.62
4  CC(C)C[C@H](CC(=O)NO)C(=O)N[C@@H](Cc1c[nH]c2ccccc12)C(=O)NCc1nc2ccccc2[nH]1            8.28
5  CNC(=O)[C@H](Cc1c[nH]c2ccccc12)NC(=O)[C@@H](CC(=O)O)CC(C)C            7.77
6  CC(C)C[C@H](CC(=O)NO)C(=O)N[C@H](Cc1ccncc1)C(=O)NCc1ccccc1            9.02

P = CC(C)C[C@H](CC(=O)NO)C(=O)N[C@@H](Cc1c[nH]c2ccccc12)C(=O)NCCNC(=O)OCc1ccccc1
Q = CNC(=O)[C@@H](Cc1ccncc1)NC(=O)[C@@H](CC(=O)NO)CC(C)C
R = CC(C)C[C@H](CC(=O)NO)C(=O)N[C@@H](Cc1c[nH]c2ccccc12)C(=O)NCc1nccs1
S = CNC(=O)[C@H](Cc1c[nH]c2ccccc12)N(C)C(=O)[C@@H](CC(=O)NO)CC(C)C
T = CC(C)C[C@H](CC(=O)NO)C(=O)N[C@H](Cc1ccc(-c2ccccc2)cc1)C(=O)N[C@@H](C)c1ccccc1
Sort entries by pKi from minimum to maximum value. Answer by writing out the labels in the requested order.
S, T, Q, P, R
